Origin of values: patent US4130650A

System: isolated auricles of guinea pigs
ASSAY_EXPLANATION: Reduction of the maximum driving frequency (MDF) of isolated auricles of guinea pigs
Format: cell-based, guinea pig
TEST_SETTINGS: Cavia porcellus; isolated left auricles; tyrode solution, 37° C., pH 7.4; cumulative addition; MDF 5 and 10 minutes after adding; read-out: EC50: concentration causing a 50% decrease of the maximum driving frequency (MDF)
Counter-ions that a name gives are not always drawn.

{"columns": ["COMPOUND", "EC50, µg/mL"],
 "data": [
  ["C(=Cc1ccccc1OCCN1CCOCC1)c1ccccn1 [C, dihydrochloride]", 33],
  ["CNCCOc1ccccc1C=Cc1ccccn1 [B, dihydrochloride]", 8.3],
  ["CN(C)CCOc1ccccc1C=Cc1nc2ccccc2n1C.Cl.Cl [G]", 9],
  ["CN(C)CCOc1ccccc1C=Cc1ccccn1.Cl [A]", 3.8],
  ["CN(C)CCOc1ccccc1C=Cc1ccc2ccccc2n1.Cl [F]", 10],
  ["CC(=Cc1ccccc1OCCN(C)C)c1ccccn1 [D, monohydrochloride]", 3.1],
  ["Cc1cccc(C=Cc2ccccc2OCCN(C)C)n1.Cl [Compound E]", 6.3],
  ["CN(C)CCOc1ccccc1C=Cc1cnccn1 [H]", 25],
  ["CN(C)CCOc1ccccc1C=Cc1ccccc1.Cl [I]", 10]
]}
